- assay-target: T1, human tissue factor pathway inhibitor (TFPI) (human, UniProt P10646 29-304, limits assumed)
- T1 construct: bought; also called hTFPI; human TFPI
- T1 sequence (looked up): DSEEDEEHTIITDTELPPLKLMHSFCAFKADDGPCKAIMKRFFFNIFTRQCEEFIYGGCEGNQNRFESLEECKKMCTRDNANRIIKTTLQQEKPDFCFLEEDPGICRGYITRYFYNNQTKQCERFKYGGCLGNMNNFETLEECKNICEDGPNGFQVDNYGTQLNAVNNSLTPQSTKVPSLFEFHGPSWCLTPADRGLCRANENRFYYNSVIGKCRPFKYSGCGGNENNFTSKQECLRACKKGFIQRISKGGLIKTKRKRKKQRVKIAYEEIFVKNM
- assay-comment: competitive ELISA
readout-label: variant/HC_D62R (ratio)
Give just the numeric value; ratio need not be written.

variant/HC_D62R measured on 4B7 HC N32D+D62Q+Y112D/LC S32R+D33F+N35I+D97T (Fab, V domains shown) VH: QVQLQQSGPGLVKPSQTLSLTCAISGDSVSSDSAAWSWIRQSPGRGLEWLGIIYKRSKWYNQYAVSVKSRITINPDTSKNQFSLQLNSVTPEDTAVYYCARWHSDKHWGFDDWGQGTLVTVSS VL: DIVMTQSPLSLPVTPGEPASISCRSSQSLVFRFGITYLNWYLQKPGQSPQLLIYKGSNRASGVPDRFSGSGSGTDFTLKISRVEAEDVGVYYCQQYTSYPLTFGQGTKVEIKR = 23.2

variant/HC_D62R measured on 4B7 HC N32D+D62R+H107M/LC S32R+D33R+N35I (Fab, V domains shown) VH: QVQLQQSGPGLVKPSQTLSLTCAISGDSVSSDSAAWSWIRQSPGRGLEWLGIIYKRSKWYNRYAVSVKSRITINPDTSKNQFSLQLNSVTPEDTAVYYCARWHSDKMWGFDYWGQGTLVTVSS VL: DIVMTQSPLSLPVTPGEPASISCRSSQSLVFRRGITYLNWYLQKPGQSPQLLIYKGSNRASGVPDRFSGSGSGTDFTLKISRVEAEDVGVYYCQQYDSYPLTFGQGTKVEIKR = 12.9

variant/HC_D62R measured on 4B7 HC N32D+D62R+H107M+Y112D/LC F31M+D33F+N35I (Fab, V domains shown) VH: QVQLQQSGPGLVKPSQTLSLTCAISGDSVSSDSAAWSWIRQSPGRGLEWLGIIYKRSKWYNRYAVSVKSRITINPDTSKNQFSLQLNSVTPEDTAVYYCARWHSDKMWGFDDWGQGTLVTVSS VL: DIVMTQSPLSLPVTPGEPASISCRSSQSLVMSFGITYLNWYLQKPGQSPQLLIYKGSNRASGVPDRFSGSGSGTDFTLKISRVEAEDVGVYYCQQYDSYPLTFGQGTKVEIKR = 28.4
